# Measurement Notes: Tested for the NMDA antagonist activity using a functional assay, by protection of cultured hippocampus neurons from the toxic effects of extracellularly applied glutamate
pIC50: −log10 of the molar value.
# cutoff 7 applies to pIC50; >= gives class 1, < gives class 0

>  <Compound>
O=C1Cc2cc(C(O)CN3CCC(Cc4ccc(F)cc4)CC3)ccc2N1 (stereo not given)

>  <Cat>
class 0

$$$$
>  <Compound>
OC(CN1CCC(Cc2ccc(F)cc2)CC1)c1ccc(Cl)cc1 (stereo not given)

>  <Cat>
class 0

$$$$
>  <Compound>
C[C@@H]([C@H](O)c1ccc2c(c1)CC(=O)N2)N1CCC(Cc2ccccc2)CC1

>  <Cat>
class 0

$$$$
>  <Compound>
C[C@@H]([C@@H](O)c1ccc2c(c1)CC(=O)N2)N1CCC(c2ccccc2)CC1

>  <Cat>
class 1

$$$$
